system: EZH2; test: 3' UTR reporter interaction score (median-centred robust z-score of log2 firefly/Renilla activity); higher = less repression of the 3' UTR reporter; details: HEK293T; 48 h
Note: every record was labeled by where its 3' UTR reporter interaction score sits among bucket 1: < -0.3; bucket 2: ≥ -0.3 and < 0.6; bucket 3: ≥ 0.6

Q: # bin lookup: classify GACCUGGACAUGUUUGUGCCCAGU by its 3' UTR reporter interaction score
Ans: bucket 2

Q: # bin lookup: classify AGGCACCAGCCAGGCAUUGCUCAGC by its 3' UTR reporter interaction score
Ans: bucket 3

Q: # bin lookup: classify UUGGUCCCCUUCAACCAGCUA by its 3' UTR reporter interaction score
Ans: bucket 3

Q: # bin lookup: classify UGAGGUAGUAGUUUGUGCUGU by its 3' UTR reporter interaction score
Ans: bucket 1

Q: # bin lookup: classify UUCACAGUGGCUAAGUUCUGC by its 3' UTR reporter interaction score
Ans: bucket 1

Q: # bin lookup: classify UAAGUGCUUCCAUGUUUGAGUGU by its 3' UTR reporter interaction score
Ans: bucket 1

Q: # bin lookup: classify AACCAGCACCCCAACUUUGGAC by its 3' UTR reporter interaction score
Ans: bucket 3

Q: # bin lookup: classify UCACAGUGAACCGGUCUCUUUC by its 3' UTR reporter interaction score
Ans: bucket 3

Q: # bin lookup: classify UGUGCAAAUCCAUGCAAAACUGA by its 3' UTR reporter interaction score
Ans: bucket 2

Q: # bin lookup: classify AACAGGUGACUGGUUAGACAA by its 3' UTR reporter interaction score
Ans: bucket 2

Q: # bin lookup: classify AAUAUAACACAGAUGGCCUGU by its 3' UTR reporter interaction score
Ans: bucket 3

Q: # bin lookup: classify CAAAGCGCUUCUCUUUAGAGUG by its 3' UTR reporter interaction score
Ans: bucket 3

Q: # bin lookup: classify GCGACCCACUCUUGGUUUCCA by its 3' UTR reporter interaction score
Ans: bucket 3

Q: # bin lookup: classify ACCCUAUCAAUAUUGUCUCUGC by its 3' UTR reporter interaction score
Ans: bucket 1

Q: # bin lookup: classify AAGCCUGCCCGGCUCCUCGGG by its 3' UTR reporter interaction score
Ans: bucket 2

Q: # bin lookup: classify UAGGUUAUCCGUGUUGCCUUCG by its 3' UTR reporter interaction score
Ans: bucket 2

Q: # bin lookup: classify CUUUCAGUCGGAUGUUUGCAGC by its 3' UTR reporter interaction score
Ans: bucket 1

Q: # bin lookup: classify CUUUCAGUCGGAUGUUUACAGC by its 3' UTR reporter interaction score
Ans: bucket 1

Q: # bin lookup: classify CCUCUAGAUGGAAGCACUGUCU by its 3' UTR reporter interaction score
Ans: bucket 3

Q: # bin lookup: classify CUGGACUUAGGGUCAGAAGGCC by its 3' UTR reporter interaction score
Ans: bucket 1

Q: # bin lookup: classify UAAAGUGCUGACAGUGCAGAU by its 3' UTR reporter interaction score
Ans: bucket 1

Q: # bin lookup: classify GUUCAAAUCCAGAUCUAUAAC by its 3' UTR reporter interaction score
Ans: bucket 2

Q: # bin lookup: classify UUUGUGACCUGGUCCACUAACC by its 3' UTR reporter interaction score
Ans: bucket 2

Q: # bin lookup: classify UGAGCUGCUGUACCAAAAU by its 3' UTR reporter interaction score
Ans: bucket 1

Q: # bin lookup: classify AAAGUGCUUCCCUUUGGACUGU by its 3' UTR reporter interaction score
Ans: bucket 1

Q: # bin lookup: classify UAAGGUGCAUCUAGUGCAGAUA by its 3' UTR reporter interaction score
Ans: bucket 2

Q: # bin lookup: classify UGUGACUGGUUGACCAGAGGG by its 3' UTR reporter interaction score
Ans: bucket 3

Q: # bin lookup: classify CAUCUGGAGGUAAGAAGCACUUU by its 3' UTR reporter interaction score
Ans: bucket 2

Q: # bin lookup: classify GUGAGUCUCUAAGAAAAGAGGA by its 3' UTR reporter interaction score
Ans: bucket 2

Q: # bin lookup: classify AAUGGCGCCACUAGGGUUGUGCA by its 3' UTR reporter interaction score
Ans: bucket 1

Q: # bin lookup: classify UACCCUGUAGAUCCGAAUUUGUG by its 3' UTR reporter interaction score
Ans: bucket 3

Q: # bin lookup: classify GCGACCCAUACUUGGUUUCAG by its 3' UTR reporter interaction score
Ans: bucket 3
